// data source = ChEMBL document CHEMBL4837181

Run Description: Change in normalised AUCinfinity in rat at 10 mg/kg, po measured upto 72 hrs by LC-MS/MS analysis
Type: ADME, organism-based
Assay Conditions: in vivo
Readout Type: Activity (%)
Dear colleague, please return just the value in %, with no unit written.

Consider the following illustrative entries.
Molecule: Cl.Cn1cc(C[C@@H](NC(=O)[C@@H](N)Cc2c[nH]c3ccccc23)C(=O)O)c2ccccc21
Activity (%): -18

Molecule: CCOC(=O)[C@@H](Cc1cn(C)c2ccccc12)NC(=O)[C@@H](N)[C@@H](C)CC.Cl
Activity (%): 19

Molecule: Cl.Cn1cc(C[C@@H](NC(=O)[C@H](N)Cc2c[nH]c3ccccc23)C(=O)O)c2ccccc21
Activity (%): -64

Molecule: CCOC(=O)[C@H](N)Cc1cn(C)c2ccccc12.Cl
Activity (%): -11

Molecule: Cl.Cn1cc(C[C@@H](N)C(=O)OCCC2CCNCC2)c2ccccc21
Activity (%): -78

Query: Could you tell me which Activity is on file for Cn1cc(C[C@@H](N)C(=O)O)c2ccccc21 [INDOXIMOD] ?
Response: 0

====

Run Description: Stability in rat plasma assessed as parent compound remaining measured after 2 hrs by LC-MS/MS analysis
Type: ADME, cell-free
Assay Conditions: read-out: Stabilty
Where a SMILES comes first, the peptide text is derived from it. [ ]: non-standard residue; d: D form. dTrp(1-Me) = Cn1cc(C[C@@H](N)C(=O)O)c2ccccc21
Readout Type: remaining at 2 h (%)
Dear colleague, please return just the value in %, with no unit written.

Compound: Cl.Cn1cc(C[C@@H](NC(=O)[C@@H](N)Cc2ccccc2)C(=O)O)c2ccccc21
Readout Type: remaining at 2 h
Value Measured: 19
//
Compound: Cl.Cn1cc(C[C@@H](N)C(=O)OCC2CCNCC2)c2ccccc21
Readout Type: remaining at 2 h
Value Measured: 19

Query: Could you tell me which remaining at 2 h is on file for Cl.Cn1cc(C[C@@H](NC(=O)CN)C(=O)O)c2ccccc21 (H-Gly-[dTrp(1-Me)]-OH) ?
Response: 56

Query: Now the same for `Cl.Cn1cc(C[C@@H](N)C(=O)N[C@H](Cc2cn(C)c3ccccc23)C(=O)O)c2ccccc21`
Response: 80

Query: Now the same for `Cl.Cn1cc(C[C@@H](N)C(=O)OCCC2CCOCC2)c2ccccc21`
Response: 0

Query: Now the same for Cl.Cn1cc(C[C@@H](N)C(=O)OCC(N)C(=O)O)c2ccccc21 (single isomer, unassigned)
Response: 84

Query: Now the same for `Cl.Cn1cc(C[C@@H](NC(=O)[C@@H](N)Cc2c[nH]c3ccccc23)C(=O)O)c2ccccc21`
Response: 76

====

Run Description: Stability in rat plasma assessed as parent compound remaining measured after 2 hrs by LC-MS/MS analysis
Type: ADME, cell-free
Assay Conditions: read-out: Stabilty
Readout Type: remaining at 2 h (%)
Dear colleague, please return just the value in %, with no unit written.

Consider the following illustrative entries.
Compound: CCOC(=O)[C@@H](Cc1cn(C)c2ccccc12)NC(=O)[C@@H](N)[C@@H](C)CC.Cl
Value Measured: 0

Compound: C[C@H](N)C(=O)N[C@H](Cc1cn(C)c2ccccc12)C(=O)O.Cl
Value Measured: 92

Compound: Cl.Cn1cc(C[C@@H](NC(=O)[C@@H](N)CCC(=O)O)C(=O)O)c2ccccc21
Value Measured: 100

Query: Could you tell me which remaining at 2 h is on file for CC(C)C(NC(=O)[C@H](N)Cc1cn(C)c2ccccc12)C(=O)O.Cl (single isomer, unassigned) ?
Response: 100

Query: Now the same for `Cl.Cn1cc(C[C@@H](NC(=O)[C@@H](N)CCC(N)=O)C(=O)O)c2ccccc21`
Response: 100
